Exercise: state measured pKi for each of the compounds provided.
The scale used: pKi is minus the common logarithm of the concentration in molar units.

Problem: Under UniProtKB P21398: pKi value of Cn1cccc1C(=O)[C@@H](c1ccccc1)N1CCSCC1 ?
Result: 7.12

Problem: Lab note: need pKi with UniProtKB P21398 for entry Cn1cccc1C(=O)C(c1ccccc1)N1C(=O)c2ccccc2C1=O (stereo not drawn) , please look it up.
Result: 6.09

Problem: Lab note: need pKi for Cn1cccc1C(=O)[C@@H](c1ccccc1)N1CCCC1 on UniProtKB P21398, anyone have it?
Result: 8.46

Problem: Provide value of pKi for this record tested with UniProtKB P21398: CCOc1ccc(NC(C(=O)c2cccn2C)c2ccccc2)cc1 (stereo not drawn)
Result: 6.08

Problem: Recall the recorded pKi for Cn1cccc1C(=O)C(c1ccccc1)N1CCSCC1 (stereo not drawn) with UniProtKB P21398 and state it.
Result: 7.00

Problem: Recall the recorded pKi for Cn1cccc1C(=O)C(c1ccccc1)N1CCN(Cc2ccccc2)CC1 (stereo not drawn) with UniProtKB P21398 and state it.
Result: 6.03

Problem: pKi of Cn1cccc1C(=O)CN1CCCCC1 on UniProtKB P21398?
Result: 8.15

Problem: Request: pKi, test system UniProtKB P21398, entry Cn1cccc1C(O)C(c1ccccc1)N1CCCCC1 (racemic; form 1)
Result: 4.51

Problem: Tell me reported pKi for Cn1cccc1C(O)C(c1ccccc1)N1CCCCC1 (single isomer, unassigned; form 2) , tested with UniProtKB P21398.
Result: 5.15

Problem: Field: pKi (UniProtKB P21398). Entry: Cn1cccc1C(O)C(c1ccccc1)N1CCCCC1 (racemic; form 2)
Result: 6.00

Problem: What is its pKi for UniProtKB P21398? Entry: CC(C(=O)c1cccn1C)N1CCCCC1 (stereo not drawn)
Result: 7.42

Problem: Given the entry Cn1cccc1C(=O)[C@H](c1ccccc1)N1CCCC1 , what pKi was observed with UniProtKB P21398?
Result: 8.02

Problem: Return pKi measured with UniProtKB P21398 given this compound: Cn1cccc1C(=O)C(c1ccccc1)N1CCOCC1 (stereo not drawn)
Result: 6.46

Problem: Hello, I am looking for reported pKi with UniProtKB P21398 for Cn1cccc1C(O)C(c1ccccc1)N1CCCCC1 (single isomer, unassigned; form 1) . Could you help?
Result: 6.28

Problem: Notebook entry, UniProtKB P21398 assay: pKi of Cn1cccc1C(=O)[C@H](c1ccccc1)N1CCSCC1 = ?
Result: 7.09

Problem: Report pKi for Cn1cccc1C(=O)C(c1ccccc1)N1CCCCC1 (racemic) tested on UniProtKB P21398.
Result: 7.02

Problem: Request: pKi, test system UniProtKB P21398, entry Cn1cccc1C(O)C(c1ccccc1)N1CCCCC1 (single isomer, unassigned; (-))
Result: 4.26

Problem: Param readout = pKi; param system = UniProtKB P21398; param query = Cn1cccc1C(=O)C(N)c1ccccc1 (stereo not drawn) ; response: value
Result: 7.02

Problem: Item: CN(C)C(C(=O)c1cccn1C)c1ccccc1 (stereo not drawn) Test system: UniProtKB P21398 Read-out: pKi Value: ?
Result: 5.76

Problem: Give the reported pKi for Cn1cccc1C(O)C(c1ccccc1)N1CCCCC1 (stereo in doubt) (system: UniProtKB P21398).
Result: 6.22

Problem: Please tell me: pKi of Cn1cccc1C(O)CN1CCCCC1 (stereo not drawn) , system UniProtKB P21398?
Result: 6.29

Problem: Value wanted: pKi (UniProtKB P21398) of entry Cn1cccc1C(=O)[C@H](c1ccccc1)N1CCCCC1
Result: 7.00

Problem: For UniProtKB P21398, provide pKi of CN1CCN(C(C(=O)c2cccn2C)c2ccccc2)CC1 (stereo not drawn) please.
Result: 6.46
